- Tested on: Pseudomonas aeruginosa
- PROTOCOL_DETAILS: Antibacterial activity against Pseudomonas aeruginosa ATCC 10145 after 18 hrs by broth microdilution method
- Format: functional
- DETAILS: ATCC 10145, 18 h
READOUT: MIC

Illustrative cases are given below, each with its answer.
{"columns": ["COMPOUND", "RESULT"],
 "data": [
  ["Sc1nnc(-c2ccc(-n3cccc3)cc2)o1", "31.2 µg/mL"],
  ["CC(C)=NNC(=O)c1ccc(-n2cccc2)cc1", "62.5 µg/mL"],
  ["O=C(NN=C(c1ccccc1)c1ccccc1)c1ccc(-n2cccc2)cc1", "62.5 µg/mL"]
]}

Lookup: Query: MIC; subject: NNC(=O)c1ccc(-n2cccc2)cc1
Found: 62.5 µg/mL

Lookup: Query: MIC; subject: O=C(N/N=C/c1ccccc1)c1ccc(-n2cccc2)cc1
Found: 125 µg/mL

Lookup: Query: MIC; subject: CC(=O)NNC(=O)c1ccc(-n2cccc2)cc1
Found: 62.5 µg/mL

Lookup: Query: MIC; subject: C/C(=N\NC(=O)c1ccc(-n2cccc2)cc1)c1ccccc1
Found: 62.5 µg/mL

Lookup: Query: MIC; subject: Cc1ccc(C)n1NC(=O)c1ccc(-n2cccc2)cc1
Found: 62.5 µg/mL

Lookup: Query: MIC; subject: CCn1cc(C(=O)O)c(=O)c2cc(F)c(N3CCNCC3)cc21
Found: > 5 µg/mL

Lookup: Query: MIC; subject: O=C(N/N=C/c1ccc(O)cc1)c1ccc(-n2cccc2)cc1
Found: 62.5 µg/mL

Lookup: Query: MIC; subject: O=C(O)c1cn(C2CC2)c2cc(N3CCNCC3)c(F)cc2c1=O
Found: > 5 µg/mL

###

Below: a set of entries, each annotated with reported MIC.
- Tested on: Staphylococcus aureus
- PROTOCOL_DETAILS: Antibacterial activity against Staphylococcus aureus ATCC 11632 after 18 hrs by broth microdilution method
- Format: functional
- DETAILS: ATCC 11632, 18 h

Illustrative cases are given below, each with its answer.
{"columns": ["MOLECULE", "READOUT", "RESULT"],
 "data": [
  ["Sc1nnc(-c2ccc(-n3cccc3)cc2)o1", "MIC", "250 mg/L"],
  ["CN(C)c1ccc(/C=N/NC(=O)c2ccc(-n3cccc3)cc2)cc1", "MIC", "250 mg/L"],
  ["NNC(=O)c1ccc(-n2cccc2)cc1", "MIC", "250 mg/L"]
]}

Lookup: Query: MIC; subject: CC(=O)N1N=C(c2ccc(-n3cccc3)cc2)OC1c1ccccc1 (stereo unspecified)
Found: 250 mg/L

Lookup: Query: MIC; subject: Nn1c(-c2ccc(-n3cccc3)cc2)n[nH]c1=S
Found: 500 mg/L

Lookup: Query: MIC; subject: O=C(N/N=C/c1ccc(O)cc1)c1ccc(-n2cccc2)cc1
Found: 125 mg/L

Lookup: Query: MIC; subject: O=C(N/N=C/c1c(Cl)cccc1Cl)c1ccc(-n2cccc2)cc1
Found: 125 mg/L

Lookup: Query: MIC; subject: CC(=O)NNC(=O)c1ccc(-n2cccc2)cc1
Found: 500 mg/L

Lookup: Query: MIC; subject: CC(=O)N1N=C(c2ccc(-n3cccc3)cc2)OC1c1c(Cl)cccc1Cl (stereo unspecified)
Found: 62.5 mg/L

Lookup: Query: MIC; subject: O=C(N/N=C/c1cccc([N+](=O)[O-])c1)c1ccc(-n2cccc2)cc1
Found: 500 mg/L

Lookup: Query: MIC; subject: O=C(O)c1cn(C2CC2)c2cc(N3CCNCC3)c(F)cc2c1=O
Found: < 5 mg/L
